Tested Target: MATE1 (Homo sapiens, UniProt Q96FL8)
Sequence (Q96FL8 1-570): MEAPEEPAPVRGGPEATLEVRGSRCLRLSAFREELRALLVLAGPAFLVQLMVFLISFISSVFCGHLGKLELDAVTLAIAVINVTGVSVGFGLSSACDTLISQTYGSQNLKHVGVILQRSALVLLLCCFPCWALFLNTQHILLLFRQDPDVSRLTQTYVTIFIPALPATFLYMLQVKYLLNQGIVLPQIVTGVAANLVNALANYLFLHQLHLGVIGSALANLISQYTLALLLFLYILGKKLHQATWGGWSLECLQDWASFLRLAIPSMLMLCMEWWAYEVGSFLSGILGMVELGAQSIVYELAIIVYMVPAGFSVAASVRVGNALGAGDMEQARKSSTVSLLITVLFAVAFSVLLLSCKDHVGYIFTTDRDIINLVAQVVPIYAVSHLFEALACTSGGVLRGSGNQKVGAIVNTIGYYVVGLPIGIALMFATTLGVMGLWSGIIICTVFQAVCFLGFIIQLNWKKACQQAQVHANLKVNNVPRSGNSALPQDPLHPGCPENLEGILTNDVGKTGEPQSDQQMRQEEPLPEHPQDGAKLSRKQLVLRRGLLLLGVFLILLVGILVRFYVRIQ
Test Description: Concentration-dependent uptake (Michaelis-Menten) via MATE1 in HEK293 cells
Condition Parameters: read-out: MATE1 KM; HEK293, 1 min, net uptake
Overview of recorded log10 Km for various molecules
Value Type: log10 Km (log10 of the value in µM)

Molecule | Tested Target | Endpoint Result
COCCn1c2c([n+](Cc3cnccn3)c1C)C(=O)c1ccccc1C2=O | MATE1 (Homo sapiens, UniProt Q96FL8) | 1.91
CNC[C@H](O)c1ccc(O)c(O)c1 [Epinephrine] | MATE1 (Homo sapiens, UniProt Q96FL8) | 3.03
Cc1ncc(CO)c(CN)c1O | MATE1 (Homo sapiens, UniProt Q96FL8) | 3.23
C[C@H]1N=C(N(C)C)N=C(N)N1 | MATE1 (Homo sapiens, UniProt Q96FL8) | 1.76
CC(CCc1ccc(O)cc1)NCCc1ccc(O)c(O)c1 (stereo not shown) | MATE1 (Homo sapiens, UniProt Q96FL8) | 1.95
C#CCN[C@@H]1CCc2ccccc21 | MATE1 (Homo sapiens, UniProt Q96FL8) | 2.22
Cc1ncc(C[n+]2csc(CCO)c2C)c(N)n1 | MATE1 (Homo sapiens, UniProt Q96FL8) | 1.24
NC[C@H](O)c1ccc(O)c(O)c1 [Norepinephrine] | MATE1 (Homo sapiens, UniProt Q96FL8) | 3.27
CCN1CCCC1CNC(=O)c1cc(S(=O)(=O)CC)c(N)cc1OC (stereo not shown) [Amisulpride] | MATE1 (Homo sapiens, UniProt Q96FL8) | 1.03
CCN1CCCC1CNC(=O)c1cc(S(N)(=O)=O)ccc1OC (stereo not shown) [Sulpiride] | MATE1 (Homo sapiens, UniProt Q96FL8) | 1.20
Nc1ccn([C@H]2CC[C@@H](CO)O2)c(=O)n1 | MATE1 (Homo sapiens, UniProt Q96FL8) | 3.19
NCCc1ccc(O)c(O)c1 | MATE1 (Homo sapiens, UniProt Q96FL8) | 2.72
C[N@+]1(CC2CC2)CC[C@]23c4c5ccc(O)c4O[C@H]2C(=O)CC[C@@]3(O)[C@H]1C5 [Methylnaltrexone] | MATE1 (Homo sapiens, UniProt Q96FL8) | 1.25
